Biological target: d-enCas12a (Acidaminococcus sp., UniProt U2UMQ6 1-1307, E174R;S542R;K548R;D908A;E993A;D1235A)
Experiment: Spec-seq (native PAGE EMSA with sequencing of bound and unbound); 25 mM Tris-HCl pH 7.4, 150 mM KCl, 5 mM MgCl2, 10% glycerol, 1 mM DTT, 40 ng/uL salmon sperm DNA; 400 nM Cas12a, 480 nM crRNA, 50 nM library, 37 C 1 h; native PAGE at room temperature; high values mean tight binding;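 also: relative affinity from the bound to unbound sequence frequency ratio in Spec-seq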
Conditions: protein: recombinant
REPORTED ENDPOINT: binding signal (lnKA)
Your answer is read as lnKA, so omit the unit and give the number.

{"columns": ["BINDER", "REPORTED ENDPOINT", "RECORDED VALUE"],
 "data": [
  ["TGGC (dsDNA) DNA 1: GCTATCTAGTGCTCAGTACGCACTGTGGCAGGAAACTTCTGGCAGGACCAGGTCATGAGATCGGAAGAGCACACGTCTGAACTCCAGTCA DNA 2: TGACTGGAGTTCAGACGTGTGCTCTTCCGATCTCATGACCTGGTCCTGCCAGAAGTTTCCTGCCACAGTGCGTACTGAGCACTAGATAGC RNA: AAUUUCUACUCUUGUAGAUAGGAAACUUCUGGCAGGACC", "binding signal", -5.4]
]}

Next up:
Data point: GACC (dsDNA) DNA 1: GCTATCTAGTGCTCAGTACGCACTGGACCAGGAAACTTCTGGCAGGACCAGGTCATGAGATCGGAAGAGCACACGTCTGAACTCCAGTCA DNA 2: TGACTGGAGTTCAGACGTGTGCTCTTCCGATCTCATGACCTGGTCCTGCCAGAAGTTTCCTGGTCCAGTGCGTACTGAGCACTAGATAGC RNA: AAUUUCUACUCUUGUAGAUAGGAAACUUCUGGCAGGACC ; binding signal = -3.91
